A collection of molecules and their measured pIC50
study_target: cGAS (Homo sapiens (Human))
Sequence (Q8N884 whole entry): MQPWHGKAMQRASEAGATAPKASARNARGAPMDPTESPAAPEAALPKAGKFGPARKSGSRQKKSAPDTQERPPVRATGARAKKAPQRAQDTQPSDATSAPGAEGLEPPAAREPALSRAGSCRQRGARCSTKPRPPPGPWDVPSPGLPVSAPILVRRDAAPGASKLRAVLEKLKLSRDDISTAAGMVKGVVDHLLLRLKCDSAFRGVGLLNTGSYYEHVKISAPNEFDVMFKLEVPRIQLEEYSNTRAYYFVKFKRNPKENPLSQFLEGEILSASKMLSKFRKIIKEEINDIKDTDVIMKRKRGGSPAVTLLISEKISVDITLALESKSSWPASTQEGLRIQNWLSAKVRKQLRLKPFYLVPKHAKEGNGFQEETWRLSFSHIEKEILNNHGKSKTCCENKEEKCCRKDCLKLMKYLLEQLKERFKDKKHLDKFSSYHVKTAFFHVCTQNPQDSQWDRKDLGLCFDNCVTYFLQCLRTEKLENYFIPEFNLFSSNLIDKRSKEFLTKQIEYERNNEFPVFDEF
procedure_text: Human cGAS enzyme assay (hcGAS IC50, in vitro), cGAMP formation by RapidFire MS;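 further: enzyme activated by 45 bp dsDNA with GTP and ATP (30 µM each), 60 min compound pre-incubation then 90 min reaction, cGAMP relative to cyclic-di-GMP internal standard, 8-point dilutions up to 10 µM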
Format: biochemical
test_parameters: biochemical (in vitro) cGAS inhibition
pIC50: −log10 of the molar value.
assay_endpoint: pIC50

[[record]]
molecule = "C#Cc1cnc(O[C@H]2C[C@@H](C(=O)O)N(c3nc(C)nc4c3oc3cc(F)ccc34)C2)c(N2CCOC3(COC3)[C@@H]2C)c1 [Example 2.08]"
reading = 8.52

[[record]]
molecule = "CC#Cc1cnc(O[C@H]2C[C@@H](C(=O)O)N(c3nc(C(F)(F)F)nc4c3oc3ccccc34)C2)c(N2CCOC3(CC3)[C@@H]2C)c1 [Example 6.03]"
reading = 8.15

[[record]]
molecule = "C#Cc1cnc(O[C@H]2C[C@@H](C(=O)O)N(c3nc(Cl)nc4c3oc3ccccc34)C2)c(N2CCOC3(COC3)[C@@H]2C)c1 [Example 2.05]"
reading = 8.70

[[record]]
molecule = "C#Cc1cnc(O[C@H]2C[C@@H](C(=O)O)N(c3nc(C(C)(F)F)nc4c3oc3ccccc34)C2)c(N2CCOC3(COC3)[C@@H]2C)c1 [Example 1.14]"
reading = 8.52


Numbers sourced from patent US20240342186A1.
